Target: PSMA-expressing LNCaP cells (Homo sapiens, UniProt Q04609)
Construct: PSMA-expressing LNCaP cells; endogenous in cells; host or cells: LNCaP
Sequence (Q04609 whole entry): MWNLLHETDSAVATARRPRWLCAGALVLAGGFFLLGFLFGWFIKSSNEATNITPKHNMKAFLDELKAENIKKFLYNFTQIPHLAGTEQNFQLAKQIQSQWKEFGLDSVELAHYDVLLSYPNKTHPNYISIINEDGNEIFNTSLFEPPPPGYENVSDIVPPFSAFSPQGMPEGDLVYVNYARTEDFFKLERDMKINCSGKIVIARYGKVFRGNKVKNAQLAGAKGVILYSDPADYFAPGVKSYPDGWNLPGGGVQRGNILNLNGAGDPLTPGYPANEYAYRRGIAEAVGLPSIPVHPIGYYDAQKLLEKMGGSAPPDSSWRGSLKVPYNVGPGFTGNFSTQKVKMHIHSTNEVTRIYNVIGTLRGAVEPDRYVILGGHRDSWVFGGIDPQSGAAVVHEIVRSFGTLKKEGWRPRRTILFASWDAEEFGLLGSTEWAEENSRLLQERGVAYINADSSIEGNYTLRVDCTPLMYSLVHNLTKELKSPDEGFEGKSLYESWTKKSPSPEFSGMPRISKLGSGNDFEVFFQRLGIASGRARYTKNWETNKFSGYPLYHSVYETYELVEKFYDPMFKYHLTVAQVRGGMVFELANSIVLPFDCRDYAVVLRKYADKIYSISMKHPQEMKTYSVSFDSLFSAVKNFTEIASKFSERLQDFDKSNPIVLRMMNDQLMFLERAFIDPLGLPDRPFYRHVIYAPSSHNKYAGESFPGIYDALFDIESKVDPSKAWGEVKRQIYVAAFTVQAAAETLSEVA
Test: Binding competition assay against 3H-PSMA-617 on LNCaP cells
Settings: LNCaP cells; 10 nM 3H-PSMA-617; competing non-radiolabeled compound 100 nM; 2 h at 37° C.; triplicates
Note to self: use Condition met only for remaining activity at 0.1 µM readings below 70%; a reading exactly at 70% still gets Condition not met.

The examples below pair each entry with its known result.
>  <compound>
NCC1CCC(C(=O)N[C@@H](CCCNC(N)=O)C(=O)NCCCC[C@H](NC(=O)N[C@@H](CCC(=O)O)C(=O)O)C(=O)O)CC1 (stereo partly shown)

>  <discreteLabel>
Condition not met

$$$$
>  <compound>
Cc1cc(C(=O)NCCN(CCCN(CCNC(=O)c2cc(C)n(CC(=O)O)c(=O)c2O)CCNC(=O)c2cc(C)n(CC(=O)NCc3ccc(C(=O)N[C@@H](Cc4ccc5ccccc5n4)C(=O)NCCCC[C@H](NC(=O)N[C@@H](CCC(=O)O)C(=O)O)C(=O)O)nc3)c(=O)c2O)CCNC(=O)c2cc(C)n(CC(=O)O)c(=O)c2O)c(O)c(=O)n1CC(=O)O

>  <discreteLabel>
Condition met

$$$$
>  <compound>
Cn1ccc(C(=O)NCCN(CCNC(=O)c2ccn(C)c(=O)c2O)CC(Cc2ccc(NC(=O)CCC(=O)N[C@H](CCCNC(=N)N)C(=O)N[C@H](CCCNC(=N)N)C(=O)NC[C@H]3CC[C@H](C(=O)N[C@@H](Cc4ccc5ccccc5c4)C(=O)NCCCCC(NC(=O)N[C@@H](CCC(=O)O)C(=O)O)C(=O)O)CC3)cc2)CN(CCNC(=O)c2ccn(C)c(=O)c2O)CCNC(=O)c2ccn(C)c(=O)c2O)c(O)c1=O (stereo partly shown)

>  <discreteLabel>
Condition met

$$$$

State whether 70% exceeds remaining activity at 0.1 µM recorded for CNc1cc(C[C@@H](NC(=O)[C@H]2CC[C@H](CN)CC2)C(=O)NCCCC[C@H](NC(=O)N[C@@H](CCC(=O)O)C(=O)O)C(=O)O)cc2ccccc12 .
Condition not met

Can you check NC[C@H]1CC[C@H](C(=O)N[C@@H](Cc2cc3ccccc3cn2)C(=O)NCCCC[C@H](NC(=O)N[C@@H](CCC(=O)O)C(=O)O)C(=O)O)CC1 next?
Condition not met

Could you do the same for NC[C@H]1CC[C@H](C(=O)N[C@@H](Cc2ccc3ncccc3c2)C(=O)NCCCC[C@H](NC(=O)N[C@@H](CCC(=O)O)C(=O)O)C(=O)O)CC1 , please?
Condition not met

And then NCc1ccc(C(=O)N[C@@H](Cc2cnc3ccccc3c2)C(=O)NCCCC[C@H](NC(=O)N[C@@H](CCC(=O)O)C(=O)O)C(=O)O)nc1 , what is it?
Condition met

----------
Molecular target: PSMA-expressing LNCaP cells (Homo sapiens, UniProt Q04609)
Construct: PSMA-expressing LNCaP cells; endogenous in cells; host or cells: LNCaP
Experiment: Binding competition assay against 3H-PSMA-617 on LNCaP cells
Details: LNCaP cells; 10 nM 3H-PSMA-617; competing non-radiolabeled compound 100 nM; 2 h at 37° C.; triplicates
remaining activity at 0.1 µM values, listed per item
Reply with just the number (in %).

Example results:
>  <compoundString>
O=C(O)CC[C@H](NC(=O)N[C@@H](CCCCNC(=O)[C@H](Cc1ccc2ccccc2n1)NC(=O)c1ccc(CNC(=O)CN2CCN(CC(=O)O)CCN(CC(=O)O)CCN(CC(=O)O)CC2)cn1)C(=O)O)C(=O)O

>  <endpointUnit>
%

>  <remaining activity at 0.1 µM>
6

$$$$
>  <compoundString>
O=C(O)CC[C@H](NC(=O)N[C@@H](CCCCNC(=O)[C@H](Cc1ccc2ccccc2c1)NC(=O)c1ccc(CNC(=O)CN2CCN(CC(=O)O)CCN(CC(=O)O)CCN(CC(=O)O)CC2)cc1)C(=O)O)C(=O)O

>  <endpointUnit>
%

>  <remaining activity at 0.1 µM>
6

$$$$
>  <compoundString>
N[C@H]1CC[C@H](CNC(=O)N[C@@H](Cc2ccc3ccccc3c2)C(=O)NCCCC[C@H](NC(=O)N[C@@H](CCC(=O)O)C(=O)O)C(=O)O)CC1

>  <endpointUnit>
%

>  <remaining activity at 0.1 µM>
62

$$$$
>  <compoundString>
NC[C@H]1CC[C@H](C(=O)N[C@@H](Cc2csc3ccccc23)C(=O)NCCCC[C@H](NC(=O)N[C@@H](CCC(=O)O)C(=O)O)C(=O)O)CC1

>  <endpointUnit>
%

>  <remaining activity at 0.1 µM>
82

$$$$
>  <compoundString>
O=C(O)CC[C@@H](NC(=O)N[C@@H](CCCCNC(=O)[C@H](Cc1ccc2ccccc2c1)NC(=O)[C@H]1CC[C@H](CNC(=O)CN2CCN(CC(=O)O)CCN(CC(=O)O)CCN(CC(=O)O)CC2)CC1)C(=O)O)C(=O)O

>  <endpointUnit>
%

>  <remaining activity at 0.1 µM>
78

$$$$
>  <compoundString>
Nc1ccc(CC(=O)N[C@@H](Cc2ccc3ccccc3c2)C(=O)NCCCC[C@H](NC(=O)N[C@@H](CCC(=O)O)C(=O)O)C(=O)O)cc1

>  <endpointUnit>
%

>  <remaining activity at 0.1 µM>
26

$$$$
>  <compoundString>
NC[C@H]1CC[C@H](C(=O)N[C@@H](CCCCNC(=O)c2cccnc2)C(=O)NCCCC[C@H](NC(=O)N[C@@H](CCC(=O)O)C(=O)O)C(=O)O)CC1

>  <endpointUnit>
%

>  <remaining activity at 0.1 µM>
114

$$$$
>  <compoundString>
O=C(O)CC[C@H](NC(=O)N[C@@H](CCCCNC(=O)[C@H](Cc1ccc2ccccc2c1)NC(=O)c1ccc(CNC(=O)CN2CCN(CC(=O)O)CCN(CC(=O)O)CCN(CC(=O)O)CC2)cn1)C(=O)O)C(=O)O

>  <endpointUnit>
%

>  <remaining activity at 0.1 µM>
5

$$$$

Lab note: need remaining activity at 0.1 µM for NC[C@H]1CC[C@H](C(=O)N[C@@H](CCCc2ccccc2)C(=O)NCCCC[C@H](NC(=O)N[C@@H](CCC(=O)O)C(=O)O)C(=O)O)CC1 on PSMA-expressing LNCaP cells (Homo sapiens, UniProt Q04609), anyone have it?
88

Lookup NC[C@H]1CC[C@H](C(=O)N[C@@H](Cc2ccc(C3CCC3)cc2)C(=O)NCCCC[C@H](NC(=O)N[C@@H](CCC(=O)O)C(=O)O)C(=O)O)CC1
79

Entry Cc1cc(C(=O)NCCN(CCCN(CCNC(=O)c2cc(C)n(CC(=O)O)c(=O)c2O)CCNC(=O)c2cc(C)n(CC(=O)NC[C@H]3CC[C@H](C(=O)N[C@@H](Cc4ccc5ccccc5c4)C(=O)NCCCC[C@H](NC(=O)N[C@@H](CCC(=O)O)C(=O)O)C(=O)O)CC3)c(=O)c2O)CCNC(=O)c2cc(C)n(CC(=O)O)c(=O)c2O)c(O)c(=O)n1CC(=O)O please
5

And NCc1ccc(C(=O)N[C@@H](Cc2ccc3ncccc3c2)C(=O)NCCCC[C@H](NC(=O)N[C@@H](CCC(=O)O)C(=O)O)C(=O)O)nc1 ?
44

Thanks! And O=C(O)CC[C@H](NC(=O)N[C@@H](CCCCNC(=O)[C@H](Cc1ccc2ccccc2n1)NC(=O)[C@H]1CC[C@H](CNC(=O)CN2CCN(CC(=O)O)CCN(CC(=O)O)CCN(CC(=O)O)CC2)CC1)C(=O)O)C(=O)O ?
12
